- test.details: Antiplatelet activity against collagen collagen-induced platelet aggregation in human plasma preincubated for 2 mins before addition of inducer by turbidimetric method
- Type: functional, cell-free
assay.readout: pIC50
The meaning of pIC50 here: minus log10 of the concentration in molar units.

Q: Bench note: what pIC50 did Cc1[nH]c(=O)c(C#N)cc1-c1ccncc1 show?
Result: 4.92

Q: Bench note: what pIC50 did CN(C)CCn1c2ccccc2n2c(=O)cc(N3CCNCC3)nc12 show?
Result: 5.10

Q: Bench note: what pIC50 did CC(c1ccccc1)n1c2ccccc2n2c(=O)cc(N3CCNCC3)nc12 (centres undefined) show?
Result: 3.76

Q: Bench note: what pIC50 did O=c1cc(N2CCNCC2)nc2n(Cc3ccccc3)c3ccccc3n12 show?
Result: 4.57

Q: Bench note: what pIC50 did O=c1cc(N2CCNCC2)nc2n(Cc3ccccn3)c3ccccc3n12 show?
Result: 4.52

Q: Bench note: what pIC50 did CCN(CC)c1cc(=O)n2c3ccccc3n(CC)c2n1 show?
Result: 4.12

Q: Bench note: what pIC50 did O=c1cc(N2CCNCC2)nc2n(CCN3CCOCC3)c3ccccc3n12 show?
Result: 4.82

Q: Bench note: what pIC50 did O=c1cc(N2CCNCC2)nc2n(Cc3cccnc3)c3ccccc3n12 show?
Result: 5.05

Q: Bench note: what pIC50 did O=c1cc(N2CCNCC2)nc2n(CCN3CCCC3)c3ccccc3n12 show?
Result: 4.55

Q: Bench note: what pIC50 did CCN(CC)c1cc(=O)nc2n(CC)c3ccccc3n12 show?
Result: 4.12

Q: Bench note: what pIC50 did O=c1cc(N2CCNCC2)nc2n(CCc3ccccc3)c3ccccc3n12 show?
Result: 4.82

Q: Bench note: what pIC50 did O=c1cc(N2CCNCC2)nc2oc3ccc(Cl)cc3n12 show?
Result: 5.06

Q: Bench note: what pIC50 did CCn1c2ccccc2n2c(=O)cc(N3CCNCC3)nc12 show?
Result: 4.26

Q: Bench note: what pIC50 did O=c1cc(N2CCNCC2)nc2n(Cc3ccncc3)c3ccccc3n12 show?
Result: 4.68

----------
- test.details: Antiplatelet activity against collagen ADP-induced platelet aggregation in human plasma preincubated for 2 mins before addition of inducer by turbidimetric method
- Assay type: functional, cell-free
pIC50: −log10 of the molar value.
assay.readout: pIC50

Q: Bench note: what pIC50 did CC(=O)Oc1ccccc1C(=O)O show?
Result: < 3.00

Q: Bench note: what pIC50 did CCN(CC)c1cc(=O)n2c3ccccc3n(CC)c2n1 show?
Result: < 3.00

Q: Bench note: what pIC50 did CCN(CC)c1cc(=O)nc2n(CC)c3ccccc3n12 show?
Result: < 3.00
